Reported values of PBM E-score for individual entries
target: Ylr278c (UniProt Q05854); experiment: PBM E-score (8-mer binding enrichment) (E-score (-0.5 to 0.5)); higher = stronger / more preferred TF binding; settings: protein concentration: 200 nM; construct: GST-DNA-binding domain
Sequence (Q05854 whole entry, the tested form may be a part): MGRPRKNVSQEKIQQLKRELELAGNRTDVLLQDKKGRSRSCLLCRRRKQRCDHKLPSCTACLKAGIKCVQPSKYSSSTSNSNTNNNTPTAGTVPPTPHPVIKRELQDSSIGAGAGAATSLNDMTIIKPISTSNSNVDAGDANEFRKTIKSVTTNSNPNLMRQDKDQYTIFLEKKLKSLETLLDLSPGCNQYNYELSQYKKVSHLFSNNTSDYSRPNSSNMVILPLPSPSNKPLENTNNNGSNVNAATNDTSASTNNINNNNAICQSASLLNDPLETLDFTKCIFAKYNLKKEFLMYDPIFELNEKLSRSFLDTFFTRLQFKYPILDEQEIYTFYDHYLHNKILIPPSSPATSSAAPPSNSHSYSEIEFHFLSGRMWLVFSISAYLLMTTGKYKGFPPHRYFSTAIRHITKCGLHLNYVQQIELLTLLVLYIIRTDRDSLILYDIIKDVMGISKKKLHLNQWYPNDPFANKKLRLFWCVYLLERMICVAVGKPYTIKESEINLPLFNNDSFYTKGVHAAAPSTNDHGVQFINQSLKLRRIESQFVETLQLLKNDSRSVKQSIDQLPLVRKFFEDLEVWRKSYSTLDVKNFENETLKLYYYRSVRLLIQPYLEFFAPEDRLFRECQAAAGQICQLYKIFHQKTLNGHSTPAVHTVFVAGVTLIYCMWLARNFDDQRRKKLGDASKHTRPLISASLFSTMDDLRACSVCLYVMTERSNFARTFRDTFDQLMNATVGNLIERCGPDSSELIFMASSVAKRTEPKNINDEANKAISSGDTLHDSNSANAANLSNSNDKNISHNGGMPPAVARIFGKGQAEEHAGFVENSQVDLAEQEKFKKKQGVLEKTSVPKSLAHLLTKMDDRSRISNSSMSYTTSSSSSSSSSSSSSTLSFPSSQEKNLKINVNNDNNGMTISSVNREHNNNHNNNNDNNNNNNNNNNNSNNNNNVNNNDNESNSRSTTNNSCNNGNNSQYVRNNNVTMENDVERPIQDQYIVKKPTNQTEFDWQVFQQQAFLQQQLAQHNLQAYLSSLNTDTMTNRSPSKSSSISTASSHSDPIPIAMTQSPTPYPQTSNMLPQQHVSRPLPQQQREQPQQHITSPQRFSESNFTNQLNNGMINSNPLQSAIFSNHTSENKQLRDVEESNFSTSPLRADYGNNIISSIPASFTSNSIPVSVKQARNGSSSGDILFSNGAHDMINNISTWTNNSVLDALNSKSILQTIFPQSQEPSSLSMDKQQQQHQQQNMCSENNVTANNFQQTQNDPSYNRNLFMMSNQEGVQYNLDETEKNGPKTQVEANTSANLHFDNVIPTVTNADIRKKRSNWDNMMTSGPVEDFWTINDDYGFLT
Over roughly 33,000 sequences, “E-score (-0.5 to 0.5)” has its median near -0.054; the highest 2% begin near 0.39. This is one part of a sample in which the highest values are shown more often than they occur.
result type: PBM E-score

>>> print(df.to_string())
    seq_string  assay_result
 0    CCAACAAA        -0.142
 1    CCCCGGGA         0.378
 2    AGGCCCCT        -0.194
 3    AAAATCGA        -0.177
 4    CATCCCAC        -0.135
 5    GTGGCCCA        -0.196
 6    ATTCAAGG        -0.282
 7    ACGTACTG        -0.138
 8    CCCCGACC          0.28
 9    ACCCGGGA         0.307
10    ACCCCGGT         0.385
11    ACTGCCCA        -0.151
12    AAGCATAT        -0.014
13    AGAAAGAT        -0.103
14    GCCGCAGA         0.143
15    ACCCCGGA         0.445
16    CTTATCTA       -0.0407
17    CGCGTGGC      -0.00486
18    CGTGATGC         0.073

* * *

target: Ylr278c (UniProt Q05854); assay: PBM E-score (8-mer binding enrichment) (E-score (-0.5 to 0.5)); higher = stronger / more preferred TF binding; details: protein concentration: 200 nM; construct: GST-DNA-binding domain
The full ranking holds about 33,000 sequences; the median of “E-score (-0.5 to 0.5)” is about -0.054, and the highest 2% start at about 0.39. The sample as a whole holds a higher share of the highest values than the screen did.
Entry flag: yes if PBM E-score reaches 0.2; no if it does not.

In [3]: df
Out[3]:
    seq_string         system_under_test  discrete_label
 0    GTCCGAGA  Ylr278c (UniProt Q05854)             yes
 1    CTATCGTA  Ylr278c (UniProt Q05854)              no
 2    GTATCGCA  Ylr278c (UniProt Q05854)              no
 3    GAGACTAC  Ylr278c (UniProt Q05854)              no
 4    ATCCGAGA  Ylr278c (UniProt Q05854)             yes
 5    TATCCGGA  Ylr278c (UniProt Q05854)             yes
 6    ATCGCCGC  Ylr278c (UniProt Q05854)             yes
 7    AATCCGCG  Ylr278c (UniProt Q05854)             yes
 8    TAAGAGGA  Ylr278c (UniProt Q05854)              no
 9    AAGGAGCA  Ylr278c (UniProt Q05854)              no
10    GGACACCA  Ylr278c (UniProt Q05854)              no
11    GGGAGTAA  Ylr278c (UniProt Q05854)              no
12    CGCCGAGA  Ylr278c (UniProt Q05854)             yes
13    ATCCGAGC  Ylr278c (UniProt Q05854)             yes
14    CGTCGGTC  Ylr278c (UniProt Q05854)             yes
15    ATTGGACG  Ylr278c (UniProt Q05854)              no
16    ACCTCGCT  Ylr278c (UniProt Q05854)              no
17    AAACCTCC  Ylr278c (UniProt Q05854)              no
18    AGGAGCTA  Ylr278c (UniProt Q05854)              no
19    ATCGGACG  Ylr278c (UniProt Q05854)             yes
20    CATAGGAG  Ylr278c (UniProt Q05854)              no
21    GGTGTGAC  Ylr278c (UniProt Q05854)              no
22    AGGAGCTC  Ylr278c (UniProt Q05854)              no
23    TATCCGCA  Ylr278c (UniProt Q05854)             yes
24    AAAGCGAC  Ylr278c (UniProt Q05854)              no
25    CATGCTCA  Ylr278c (UniProt Q05854)              no
26    AATCCCGG  Ylr278c (UniProt Q05854)             yes
27    AGCGCCAT  Ylr278c (UniProt Q05854)              no
28    AATCCGTC  Ylr278c (UniProt Q05854)             yes
29    AAAGCCGT  Ylr278c (UniProt Q05854)              no
30    CAACAGAG  Ylr278c (UniProt Q05854)              no
31    AGTCGGAT  Ylr278c (UniProt Q05854)             yes
32    CTATCGGA  Ylr278c (UniProt Q05854)             yes
33    GACCTCCA  Ylr278c (UniProt Q05854)              no
34    GACTATGA  Ylr278c (UniProt Q05854)              no
35    CGGAGTAG  Ylr278c (UniProt Q05854)             yes
36    AGTCGGAG  Ylr278c (UniProt Q05854)             yes
37    AATCCCGT  Ylr278c (UniProt Q05854)             yes
38    CCTCCGCG  Ylr278c (UniProt Q05854)             yes
39    AAATCAGT  Ylr278c (UniProt Q05854)              no
40    ATCGCCGG  Ylr278c (UniProt Q05854)             yes
41    GCCGCCGA  Ylr278c (UniProt Q05854)             yes
42    AATCCCCG  Ylr278c (UniProt Q05854)             yes
43    ATCCAAGG  Ylr278c (UniProt Q05854)              no
44    GCTGTCTA  Ylr278c (UniProt Q05854)              no
45    AATCCGGA  Ylr278c (UniProt Q05854)             yes
46    ATTCCGCA  Ylr278c (UniProt Q05854)             yes
47    CATCCGCC  Ylr278c (UniProt Q05854)             yes
48    AACGCCGT  Ylr278c (UniProt Q05854)             yes
49    AATATCTC  Ylr278c (UniProt Q05854)              no
50    GAAACTGC  Ylr278c (UniProt Q05854)              no
51    AATCCTGG  Ylr278c (UniProt Q05854)              no
52    AATCCGGG  Ylr278c (UniProt Q05854)             yes
53    CCCCGAGC  Ylr278c (UniProt Q05854)             yes
54    CAGGCTGG  Ylr278c (UniProt Q05854)              no
55    CTCCGAGA  Ylr278c (UniProt Q05854)             yes
56    CCCGCCGA  Ylr278c (UniProt Q05854)             yes
57    ATGGCCAT  Ylr278c (UniProt Q05854)              no
58    TATCCCGA  Ylr278c (UniProt Q05854)             yes
59    ATCGGACA  Ylr278c (UniProt Q05854)             yes
60    GGCCGAGA  Ylr278c (UniProt Q05854)             yes
61    CGGGTAAA  Ylr278c (UniProt Q05854)              no
62    AACGCCGC  Ylr278c (UniProt Q05854)             yes
63    ATATCGGA  Ylr278c (UniProt Q05854)             yes
64    AAGCGTCT  Ylr278c (UniProt Q05854)              no
65    CTATCGGC  Ylr278c (UniProt Q05854)             yes
66    CGTATCAG  Ylr278c (UniProt Q05854)              no
67    AATCCCGA  Ylr278c (UniProt Q05854)             yes
68    CCATTCAC  Ylr278c (UniProt Q05854)              no
69    CGATTTTC  Ylr278c (UniProt Q05854)              no
70    AGTCGGGA  Ylr278c (UniProt Q05854)              no
71    CAGTGGCA  Ylr278c (UniProt Q05854)              no
72    AAATGCCA  Ylr278c (UniProt Q05854)              no
73    CATCCCCG  Ylr278c (UniProt Q05854)             yes
74    CCGCCTCC  Ylr278c (UniProt Q05854)             yes
75    ATTCCGCC  Ylr278c (UniProt Q05854)             yes
76    CTGAGCTC  Ylr278c (UniProt Q05854)              no
77    AATCCCCC  Ylr278c (UniProt Q05854)              no
78    AGGAGTAC  Ylr278c (UniProt Q05854)              no
79    GCTGGAGA  Ylr278c (UniProt Q05854)              no
80    CATCCCGA  Ylr278c (UniProt Q05854)             yes
81    CACCGCCC  Ylr278c (UniProt Q05854)             yes
82    CGGAGCTA  Ylr278c (UniProt Q05854)             yes
83    ATTCCCCC  Ylr278c (UniProt Q05854)              no
84    AACGCCGG  Ylr278c (UniProt Q05854)             yes
85    CATCCCCA  Ylr278c (UniProt Q05854)              no
86    GTATCGAA  Ylr278c (UniProt Q05854)              no
87    CCTCCGCC  Ylr278c (UniProt Q05854)             yes
88    AAAGCCGG  Ylr278c (UniProt Q05854)             yes

Source: the supplement of paper PMC3334620
